B1: Hairpin Ribozyme (parent)
chain: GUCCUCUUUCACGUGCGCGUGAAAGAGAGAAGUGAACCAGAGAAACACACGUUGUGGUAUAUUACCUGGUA

# Variants of: B1
# Experiment description: self-cleavage, relative activity (ratio to wild type); higher = more cleavage; co-transcriptional
Measured parameter: self-cleavage
I only need the number, thanks.

INSERT INTO assay_data (residue_sequence, measured_parameter, quantitative_result) VALUES
  ('GUCCUCUAUCACGUGCGCGUGAAAGAGAGAAGUGAACCAGAGAAACACACGUUGUGGUAUAUUUCCUGGUA [U8A A64U]', 'self-cleavage', 0.151),
  ('GUCCUCUUUCACGUGCGCGUGAAAGAGACAAGAGAACCAGAGAAACACACGUUGUGGUAUAUUACCUGGUA [G29C U33A]', 'self-cleavage', 0.0541),
  ('GUCCUCUUUCACGUGCGCCUGAAAGAGAGAAGUGAACCAGAGAAACACACGUUGUGGUAUAUUACCUGUUA [G19C G69U]', 'self-cleavage', 0.212),
  ('GUCCUCUUUCACGUGCGCGUGAAAGAGAGAAGUGAACCAGAGAAACACACGUUGUGGCAUAUUACCUGAUA [U58C G69A]', 'self-cleavage', 0.421),
  ('GUCCUCUUUCACGUGCGCGUGAAACAGAGAAGUGAACCAGAGAAACAAACGUUGUGGUAUAUUACCUGGUA [G25C C48A]', 'self-cleavage', 0.129),
  ('GUCCUCUUUCACGUGCGCGUGAAAGAGAGAAGUGAACAAGAGAAACACACGUUUUGGUAUAUUACCUGGUA [C38A G54U]', 'self-cleavage', 0.135),
  ('GACCUCUUUCACGUGGGCGUGAAAGAGAGAAGUGAACCAGAGAAACACACGUUGUGGUAUAUUACCUGGUA [U2A C16G]', 'self-cleavage', 0.156),
  ('GUCCUCUUUCACGUGCGCGUGAAAGAGAGAUGUGAACCAGACAAACACACGUUGUGGUAUAUUACCUGGUA [A31U G42C]', 'self-cleavage', 0.0816);

Lab note: next variant to report on.
Problem: Reported self-cleavage, variant GUCCUCUUUCACGUGCGAGUGAAAGAGAGCAGUGAACCAGAGAAACACACGUUGUGGUAUAUUACCUGGUA [C18A A30C] : ____
Solution: 0.166
